The reported numbers originate from the supplement of paper PMC11246515.

Test: total protein half-life in vivo (active degradation + dilution); higher = more stable protein
Settings: wild type E. coli NCM3722; growth: C-lim chemostat; doubling time 6 h
The following sequences are shown together with reported total protein half-life in vivo values.
Hi! Could you send only the number? It should be in h, unit omitted.

Would you please look over these solved cases?
MALLNVDKLSVHFGDESAPFRAVDRISYSVKQGEVVGIVGESGSGKSVSSLAIMGLIDYPGRVMAEKLEFNGQDLQRISEKERRNLVGAEVAMIFQDPMTSLNPCYTVGFQIMEAIKVHQGGNKSTRRQRAIDLLNQVGIPDPASRLDVYPHQLSGGMSQRVMIAMAIACRPKLLIADEPTTALDVTIQAQIIELLLELQQKENMALVLITHDLALVAEAAHKIIVMYAGQVVETGDAHAIFHAPRHPYTQALLRALPEFAQDKERLASLPGVVPGKYDRPNGCLLNPRCPYATDRCRAEEPALNMLADGRQSKCHYPLDDAGRPTL [P0AAG0] :: 6.95
MTEAQRHQILLEMLAQLGFVTVEKVVERLGISPATARRDINKLDESGKLKKVRNGAEAITQQRPRWTPMNLHQAQNHDEKVRIAKAASQLVNPGESVVINCGSTAFLLGREMCGKPVQIITNYLPLANYLIDQEHDSVIIMGGQYNKSQSITLSPQGSENSLYAGHWMFTSGKGLTAEGLYKTDMLTAMAEQKMLSVVGKLVVLVDSSKIGERAGMLFSRADQIDMLITGKNANPEILQQLEAQGVSILRV [P0A9W0] :: 6

# next sequence below
Data point: MIRNVLLAFMICSGMTLLGGCSSVMSHTGGKEGTYPGTRASATMIGDDETNWGTKSLAILDMPFTAVMDTLLLPWDVFRKDSSVRSRVEKSEANAQATNAVIPPARMPDN [P0ADM4] ; total protein half-life in vivo = 4.71

* * *

Assay: total protein half-life in vivo (active degradation + dilution); higher = more stable protein
Details: wild type E. coli NCM3722; growth: N-lim chemostat; doubling time 12 h
Mark Condition met for reported total protein half-life in vivo of 10 h or greater; mark Condition not met for anything smaller.

Example entries and their recorded answers appear below.
MLYIFRLIITVIYSILVCVFGSIYCLFSPRNPKHVATFGHMFGRLAPLFGLKVECRKPTDAESYGNAIYIANHQNNYDMVTASNIVQPPTVTVGKKSLLWIPFFGQLYWLTGNLLIDRNNRTKAHGTIAEVVNHFKKRRISIWMFPEGTRSRGRGLLPFKTGAFHAAIAAGVPIIPVCVSTTSNKINLNRLHNGLVIVEMLPPIDVSQYGKDQVRELAAHCRSIMEQKIAELDKEVAEREAAGKV :: Condition met
MEKYLHLLSRGDKIGLTLIRLSIAIVFMWIGLLKFVPYEADSITPFVANSPLMSFFYEHPEDYKQYLTHEGEYKPEARAWQTANNTYGFSNGLGVVEVIIALLVLANPVNRWLGLLGGLMAFTTPLVTLSFLITTPEAWVPALGDAHHGFPYLSGAGRLVLKDTLMLAGAVMIMADSAREILKQRSNESSSTLKTEY :: Condition not met
MLDLFKAIGLGLVVLLPLANPLTTVALFLGLAGNMNSAERNRQSLMASVYVFAIMMVAYYAGQLVMDTFGISIPGLRIAGGLIVAFIGFRMLFPQQKAIDSPEAKSKSEELEDEPSANIAFVPLAMPSTAGPGTIAMIISSASTVRQSSTFADWVLMVAPPLIFFLVAVILWGSLRSSGAIMRLVGKGGIEAISRLMGFLLVCMGVQFIINGILEIIKTYH [P0AEY1] :: Condition met

Say whether MHCPFCFAVDTKVIDSRLVGEGSSVRRRRQCLVCNERFTTFEVAELVMPRVVKSNDVREPFNEEKLRSGMLRALEKRPVSSDDVEMAINHIKSQLRATGEREVPSKMIGNLVMEQLKKLDKVAYIRFASVYRSFEDIKEFGEEIARLED [P0A8D0] shows total protein half-life in vivo of 10 h or more. Condition not met

Say whether MPPRALLLVDLQNDFCAGGALAVPEGDSTVDVANRLIDWCQSRGEAVIASQDWHPANHGSFASQHGVEPYTPGQLDGLPQTFWPDHCVQNSEGAQLHPLLHQKAIAAVFHKGENPLVDSYSAFFDNGRRQKTSLDDWLRDHEIDELIVMGLATDYCVKFTVLDALQLGYKVNVITDGCRGVNIQPQDSAHAFMEMSAAGATLYTLADWEETQG shows total protein half-life in vivo of 10 h or more. Condition not met

* * *

Assay: total protein half-life in vivo (active degradation + dilution); higher = more stable protein
Details: wild type E. coli NCM3722; growth: N-lim chemostat; doubling time 12 h
The following sequences are shown together with reported total protein half-life in vivo values.
Hi! Could you send only the number? It should be in h, unit omitted.

MENQPKLNSSKEVIAFLAERFPHCFSAEGEARPLKIGIFQDLVDRVAGEMNLSKTQLRSALRLYTSSWRYLYGVKPGATRVDLDGNPCGELDEQHVEHARKQLEEAKARVQAQRAEQQAKKREAAATAGEKEDAPRRERKPRPTTPRRKEGAERKPRAQKPVEKAPKTVKAPREEQHTPVSDISALTVGQALKVKAGQNAMDATVLEITKDGVRVQLNSGMSLIVRAEHLVF :: 4.76

Data point: MTVQDYLLKFRKISSLESLEKLYDHLNYTLTDDQELINMYRAADHRRAELVSGGRLFDLGQVPKSVWHYVQ ; total protein half-life in vivo = 6.7

Data point: MSQPLNADQELVSDVVACQLVIKQILDVLDVIAPVEVREKMSSQLKNIDFTNHPAAADPVTMRAIQKAIALIELKFTPQGESH [P0AD10] ; total protein half-life in vivo = 6.2

Data point: MQAEILLTLKLQQKLFADPRRISLLKHIALSGSISQGAKDAGISYKSAWDAINEMNQLSEHILVERATGGKGGGGAVLTRYGQRLIQLYDLLAQIQQKAFDVLSDDDALPLNSLLAAISRFSLQTSARNQWFGTITARDHDDVQQHVDVLLADGKTRLKVAITAQSGARLGLDEGKEVLILLKAPWVGITQDEAVAQNADNQLPGIISHIERGAEQCEVLMALPDGQTLCATVPVNEATSLQQGQNVTAYFNADSVIIATLC [P0A9G8] ; total protein half-life in vivo = 11.9

* * *

Test: total protein half-life in vivo (active degradation + dilution); higher = more stable protein
Details: E. coli NCM3722 delta-lon; growth: N-lim chemostat; doubling time 6 h
The following sequences are shown together with reported total protein half-life in vivo values.
Hi! Could you send only the number? It should be in h, unit omitted.

MSKSDVFHLGLTKNDLQGATLAIVPGDPDRVEKIAALMDKPVKLASHREFTTWRAELDGKPVIVCSTGIGGPSTSIAVEELAQLGIRTFLRIGTTGAIQPHINVGDVLVTTASVRLDGASLHFAPLEFPAVADFECTTALVEAAKSIGATTHVGVTASSDTFYPGQERYDTYSGRVVRHFKGSMEEWQAMGVMNYEMESATLLTMCASQGLRAGMVAGVIVNRTQQEIPNAETMKQTESHAVKIVVEAARRLL :: 5.95
MNSFNEGVVSPLLSFWRRSLMLAGALLLTACSHNSSLPPFTASGFAEDQGAVRIWRKDSGDNVHLLAVFSPWRSGDTTTREYRWQGDNLTLININVYSKPPVNIRARFDDRGDLSFMQRESDGEKQQLSNDQIDLYRYRADQIRQISDALRQGRVVLRQGRWHAMEQTVTTCEGQTIKPDLDSQAIAHIERRQSRSSVDVSVAWLEAPEGSQLLLVANSDFCRWQPNEKTF :: 6.98
MVRIYTLTLAPSLDSATITPQIYPEGKLRCTAPVFEPGGGGINVARAIAHLGGSATAIFPAGGATGEHLVSLLADENVPVATVEAKDWTRQNLHVHVEASGEQYRFVMPGAALNEDEFRQLEEQVLEIESGAILVISGSLPPGVKLEKLTQLISAAQKQGIRCIVDSSGEALSAALAIGNIELVKPNQKELSALVNRELTQPDDVRKAAQEIVNSGKAKRVVVSLGPQGALGVDSENCIQVVPPPVKSQSTVGAGDSMVGAMTLKLAENASLEEMVRFGVAAGSAATLNQGTRLCSHDDTQKIYAYLSR :: 4.74

Data point: MNTVCTHCQAINRIPDDRIEDAAKCGRCGHDLFDGEVINATGETLDKLLKDDLPVVIDFWAPWCGPCRNFAPIFEDVAQERSGKVRFVKVNTEAERELSSRFGIRSIPTIMIFKNGQVVDMLNGAVPKAPFDSWLNESL [P0AGG4] ; total protein half-life in vivo = 5.32

Data point: MAKHLFTSESVSEGHPDKIADQISDAVLDAILEQDPKARVACETYVKTGMVLVGGEITTSAWVDIEEITRNTVREIGYVHSDMGFDANSCAVLSAIGKQSPDINQGVDRADPLEQGAGDQGLMFGYATNETDVLMPAPITYAHRLVQRQAEVRKNGTLPWLRPDAKSQVTFQYDDGKIVGIDAVVLSTQHSEEIDQKSLQEAVMEEIIKPILPAEWLTSATKFFINPTGRFVIGGPMGDCGLTGRKIIVDTYGGMARHGGGAFSGKDPSKVDRSAAYAARYVAKNIVAAGLADRCEIQVSYAIGVAEPTSIMVETFGTEKVPSEQLTLLVREFFDLRPYGLIQMLDLLHPIYKETAAYGHFGREHFPWEKTDKAQLLRDAAGLK [P0A817] ; total protein half-life in vivo = 2.41

Data point: MSDTNYAVIYDLHSHTTASDGCLTPEALVHRAVEMRVGTLAITDHDTTAAIAPAREEISRSGLALNLIPGVEISTVWENHEIHIVGLNIDITHPLMCEFLAQQTERRNQRAQLIAERLEKAQIPGALEGAQRLAQGGAVTRGHFARFLVECGKASSMADVFKKYLARGKTGYVPPQWCTIEQAIDVIHHSGGKAVLAHPGRYNLSAKWLKRLVAHFAEHHGDAMEVAQCQQSPNERTQLAALARQHHLWASQGSDFHQPCPWIELGRKLWLPAGVEGVWQLWEQPQNTTEREL ; total protein half-life in vivo = 4.05
